measuredProperty: melting point

Recall and state the measured melting point for COC1CC2(C)C(CCC3C4CCC(C(=O)COC(C)=O)C4(C)CC(=O)C32)CC1O (stereo unspecified) .
177 to 180 °C

Name the recorded melting point of the compound listed here: CC1NC(=O)NN=C1c1ccc(Cl)c(N)c1 (stereo unspecified)
226 to 228 °C

State its melting point: OC1(c2ccccc2)CCN(CCC2Cc3ccccc3O2)CC1 (stereo unspecified)
107 °C

Look up and report measured melting point for this entry: CN(C)c1cccc(CN2C(=O)C3(COc4cc5c(cc43)OCCO5)c3ccccc32)n1 (stereo unspecified)
196 to 197 °C

Give me measured melting point, please, for this compound: CCOC(=O)c1c(C)nc2scnc2c1NC(C)C
48 to 50 °C

***
Return reported melting point. Input compound: COCCCCOc1ccc(OCc2ccccc2)cc1
60 to 61 °C

Return the recorded melting point value; entry: O=C(CBr)Nc1ccc(I)cc1C(=O)c1ccccc1Cl
150 to 152 °C

Supply melting point value. Item: NC(=S)NCc1ccco1
80 to 91 °C

Determine its reported melting point: N#Cc1ccc(-c2ccc(O)cn2)cc1
210 °C

Query melting point for CCc1oc2ccccc2c1C(=O)c1ccc(OCCOS(=O)(=O)c2ccc(C)cc2)cc1
95 to 98 °C

For the compound C=CCOc1ccc2c(=O)c3ccccc3oc2c1C(=O)C=Cc1ccccc1 , give its reported melting point.
150 to 152 °C

====

measuredProperty: melting point

Before answering, review these 5 worked examples.
Look up and report measured melting point for this entry: COc1cc2cc(C(=O)O)cc(-c3ccnc(Cl)c3)c2cc1OC
> 250 °C

Name the recorded melting point of the compound listed here: CC(=O)N1c2cscc2C(=O)N(C)c2ccccc21
197 to 199 °C

Answer with the recorded melting point of CN(C)c1nc(N)nc(-c2cc(Cl)ccc2Cl)n1 only.
178 to 179 °C

Check the records and state melting point for COC(=O)CC(NCCCN(C)C)C(=O)O (stereo not drawn)
171 to 172 °C

Retrieve melting point measured for CCOC(=O)C(O)(CC(=O)c1ccc(-n2ccnc2)cc1)C(=O)OCC and print it.
155 to 156 °C

Further cases:
Complete the entry with melting point for COc1c(Nc2ccccc2)ccc2ccccc12
43 to 45 °C

Hello, please tell me recorded melting point for this one: COc1cc2c(=O)n(CCN3CCCCC3)c3c4cc5c(cc4nnc3c2cc1OC)OCO5
294 to 295 °C

Return the recorded melting point value; entry: O=C1C=C(c2ccc(Cl)c(S(=O)(=O)N3CCCC3)c2)OC1
108 to 111 °C

Retrieve melting point measured for CC(=O)N(C)Cc1ccc(NC(=O)/C=C/c2cnn(C)c2-c2ccc(F)cc2)cc1 and print it.
192 to 193 °C

Give me measured melting point, please, for this compound: CCOc1cc2c(-c3ccnc(Cl)c3)c(C(=O)OC)c(C(=O)OC)cc2cc1OC
196 to 198 °C

Return melting point (reported value) for this compound: CC(C)n1nc(-c2c(NC(C)(C)C)nc(N)nc2-c2ccccc2)ccc1=O
202 to 204 °C

Retrieve melting point measured for COC(=O)C(C)Oc1ccc(NC(=O)OCCO)cc1 (stereo not drawn) and print it.
90.5 to 92.8 °C

Look up melting point of O=C1N(C2CCCCC2)CC(CN2CCC(O)(c3ccccc3)CC2)C1(c1ccccc1)c1ccccc1 (stereo not drawn) and report it.
179 to 184 °C

For the compound Cc1c(Cc2cccc(C(F)(F)F)c2)sc2c(-c3cccc(C(=O)NCC(N)=O)c3)cccc12 , give its reported melting point.
187 to 188 °C
